Entry source: ChEMBL document CHEMBL3244409

System: Rattus norvegicus
ASSAY_COMMENT: Analgesic activity in sc dosed rat assessed as inhibition of morphine-induced effect
Type: functional
PROPERTY_MEASURED: AD50 (mg/kg)
Lab book: enter the figure in mg/kg, no units written.

Previously resolved entries follow.
{"columns": ["COMPOUND", "MEAS_VALUE"],
 "data": [
  ["C[C@H]1[C@H]2Cc3ccc(O)cc3[C@]1(C)CCN2CC1CC1 [CYCLAZOCINE]", 0.029],
  ["C=CCN1CC[C@]23c4c5ccc(O)c4O[C@H]2C(=O)CC[C@@]3(O)[C@H]1C5 [NALOXONE]", 0.004],
  ["CCCCCC(=O)CC[C@]1(C)C2Cc3ccc(O)cc3[C@@]1(C)CCN2C.Cl (mixture of isomers)", 0.098]
]}

Incoming: Provide the documented AD50 with Rattus norvegicus as the system for CC(C)CCC(=O)CC[C@]1(C)C2Cc3ccc(O)cc3[C@@]1(C)CCN2C.Cl (mixture of isomers)
Outgoing: 0.58
